Data credit: paper PMC10999543

System: HeLa cells
Procedure text: Compound screen by flow cytometry: HeLa cell count as surrogate readout of cell viability (z-scoreHeLa)
Assay type: cell-based, human
Test context: PKIS compound screen raw data, HeLa cell count, replicate 2
Measured property: cell count rep 2

Compound	Measured property	Numeric readout
c1ccc(-c2n[nH]cc2-c2ccnc(-c3ccc(CNC4CCOCC4)cc3)c2)nc1 [GW709213X]	cell count rep 2	33773
COc1cc(Nc2nccc(N3CCC(NC(=O)Nc4ccc5c(c4)OCO5)C3)n2)cc(OC)c1OC (centres unmarked) [GSK1379766A]	cell count rep 2	29727
COc1cccc(NC(=O)NC2CCN(c3ccnc(Nc4cc(OC)c(OC)c(OC)c4)n3)C2)c1 (centres unmarked) [GSK1379763A]	cell count rep 2	24740
Cc1cccc(Cn2ccn3c(=O)cc(N4CCOCC4)nc23)c1 [GSK2297542A]	cell count rep 2	30989
COc1cc2c(Nc3cccc(NC(=O)c4ccccc4)c3)ncnc2cc1OCCCN1CCOCC1 [GSK223810A]	cell count rep 2	24881
Fc1cc(Cl)ccc1Nc1ccnc2cc(-c3ccc(CN4CCSCC4)o3)ccc12 [GW560106X]	cell count rep 2	29129
CC(C)c1nc(-c2ccc(F)c(NS(=O)(=O)c3c(F)cccc3F)c2)c(-c2ccnc(Nc3ccc(N4CCOCC4)nc3)n2)s1 [GSK1804250A]	cell count rep 2	16426
COc1ccc(Nc2nccc(N3CCC(NC(=O)C(C)c4ccc(Cl)cc4)CC3)n2)cc1 (centres unmarked) [GSK1379812A]	cell count rep 2	27526

---

Test system: HeLa cells
Procedure text: Compound screen by flow cytometry: HeLa cell count as surrogate readout of cell viability (z-scoreHeLa)
Assay type: cell-based, human
Test context: PKIS compound screen, replicate 2
z-scoreHeLa rep 2 strictly less than 0.4 = yes (1). Otherwise no (0).

Molecule	Assigned class
O=S(=O)(CCNCc1ccc(-c2ccc3ncnc(Nc4ccc(OCc5cccc(F)c5)c(Cl)c4)c3c2)o1)c1ccccc1 [GW633459A]	no (0)
c1ccc(Oc2ccc(Nc3ccnc4cc(-c5ccc(CNCCN6CCOCC6)o5)ccc34)cc2)nc1 [GW567145X]	no (0)
Cc1cccc(-c2nc(Nc3cccc(C(N)=O)c3)c3ccccc3n2)n1 [GW876019X]	yes (1)
COC(=O)c1cccc(NC(=O)NC2CCN(c3ccnc(Nc4ccc(OC)cc4)n3)C2)c1 (centres unmarked) [GSK1379746A]	yes (1)
COc1ccc(CNC(=O)NC2CCN(c3ccnc(Nc4ccc(OC)cc4)n3)C2)cc1 (centres unmarked) [GSK1379727A]	no (0)
COc1cccc(-n2ncc3c(N/N=C/c4ccncc4)ncnc32)c1 [GW784752X]	yes (1)
CN1C(=O)C(Nc2ccccc2)=C(c2ccccc2)C1=O	no (0)
c1ccc(Cn2ncc3cc(Nc4ncnc5ccccc45)ccc32)cc1 [GW273749A]	no (0)
Cc1ccc(C(=O)Nc2ccc(Nc3ccnc4cc(-c5nccs5)ccc34)cc2O)cc1 [GW494702A]	no (0)
CN(C)S(=O)(=O)c1cc(-c2ccc3nccc(-c4cccc(S(N)(=O)=O)c4)c3c2)cnc1N [GSK1669921A]	yes (1)
COc1ccc(Nc2nccc(N3CCC(NC(=O)Nc4cccc(C(C)=O)c4)C3)n2)cc1 (centres unmarked) [GSK1379731A]	no (0)
Cc1nn2c(=O)cc(N3CCOCC3)nc2n1Cc1cccc(Cl)c1Cl [GSK2342769A]	yes (1)
c1ccc(COc2ccc(Nc3ncnc4ccc(-c5ccco5)cc34)cc2)cc1 [GW284372X]	no (0)
COC(=O)c1ccc2c(c1)C(=Cc1cc(Br)c(O)c(Br)c1)C(=O)N2 [GW405841X]	no (0)
CC(C)c1nc(-c2ccc(F)c(NS(=O)(=O)c3c(F)cccc3F)c2)c(-c2ccnc(Nc3ccc(N4CCOCC4)nc3)n2)s1 [GSK1804250A]	yes (1)
COc1cc(Nc2nccc(N3CCC(NC(=O)C(C)c4ccc(Cl)cc4)C3)n2)cc(OC)c1OC (centres unmarked) [GSK1379757A]	yes (1)
COc1ccc2ncnc(Nc3ccc(OCc4ccccc4)cc3)c2c1 [GI261520A]	no (0)

---

Test system: HeLa cells
Procedure text: Compound screen by flow cytometry: HeLa cell count as surrogate readout of cell viability (z-scoreHeLa)
Type: cell-based, human
Test context: PKIS compound screen, replicate 1
Returns Met if the recorded z-scoreHeLa rep 1 is greater than or equal to 0.3, and Not met otherwise.

Compound	Assigned class
c1ccc(-c2cc3ccncc3cc2OC2CCNCC2)cc1 [GSK1122999D]	Met
Cc1nnc(-c2ccc(C)c(-c3ccc(C(=O)NCc4ccc(Cl)cc4)cc3)c2)o1 [GW708893X]	Met
CS(=O)(=O)CCNCc1ccc(-c2ccc3ncnc(Nc4ccc(OCc5ccccc5)c(Cl)c4)c3c2)o1 [GW574783B]	Met
O=C(c1ccc(-c2cc(-c3c[nH]nc3-c3ccccn3)ccn2)cc1)N1CCOCC1 [GW812171X]	Met
CC(C)c1nc(-c2cccc(NS(=O)(=O)c3c(F)cccc3F)c2F)c(-c2ccnc(Nc3ccc(N4CCOCC4)nc3)n2)s1 [GSK2008607A]	Not met
Nc1ncc(-c2cccnc2)c2scc(-c3ccc4c(c3)CCN4C(=O)Cc3ccccc3)c12 [GSK683281A]	Met
[O-][S+]1CCN(Cc2ccc(-c3ccc4ncnc(Nc5ccc(OCc6ccccc6)c(F)c5)c4c3)o2)CC1 [GW576924A]	Not met
Cc1cn2c(=O)cc(N3CCOCC3)nc2n1Cc1cccc(Cl)c1Cl [GSK2334006A]	Not met

---

Test system: HeLa cells
Procedure text: Compound screen by flow cytometry: HeLa cell count as surrogate readout of cell viability (z-scoreHeLa)
Format: cell-based, human
Test context: compound screen, HeLa cell count, mean of 3 replicates
Lab note: anything with z-scoreHeLa mean below -1 is marked Met; values at -1 or higher are marked Not met.

Compound	Study system	Assigned class
COc1cccc(CC(=O)N2CCc3cc(-c4cn(C)c5ncnc(N)c45)ccc32)c1 [GSK2608899A]	HeLa cells	Met
Cn1cc(-c2ccc3c(c2)CCN3C(=O)Cc2cc(F)cc(F)c2F)c2c(N)ncnc21 [GSK2634140A]	HeLa cells	Met
COc1ccc(CNC(=O)NC2CCN(c3ccnc(Nc4ccc(F)cc4)n3)CC2)cc1 [GSK1379788A]	HeLa cells	Not met
CS(=O)(=O)CCNCc1nc(-c2ccc3ncnc(Nc4ccc(OCc5cccc(F)c5)c(Cl)c4)c3c2)cs1 [GW583340C]	HeLa cells	Not met
CC(C)c1ccc2c(c1)NC(=O)C2=NNc1ccc(S(N)(=O)=O)cc1 [GW300653X]	HeLa cells	Not met
Cc1n[nH]c2cc(Nc3ccnc(Nc4cccc(CN5CCOCC5)c4)n3)ccc12 [GW682569X]	HeLa cells	Met
Fc1cccc(COc2ccc(Nc3ncnc4cc(-c5ccc[nH]5)sc34)cc2Cl)c1 [GW693881A]	HeLa cells	Not met
CC(C(=O)NC1CCN(c2ccnc(Nc3ccc(F)cc3)n2)C1)c1ccc(Cl)cc1 (centres unmarked) [GSK1379713A]	HeLa cells	Not met
COc1ccccc1-c1cc(/C=C2\C(=O)Nc3ncc(Br)cc32)cc(Br)c1O [GW442130X]	HeLa cells	Not met
COc1ccc2[nH]c3c4[nH]c5ccc(OC)cc5c4c4c(c3c2c1)C(=O)NC4=O [GW296115X]	HeLa cells	Not met
Nc1nonc1-c1nc2cnccc2n1C1CCCCC1 [SB-734117]	HeLa cells	Met
Cc1cc(-c2ccnc(Nc3cccc(C#N)c3)n2)cc(C)c1O [GSK1440913A]	HeLa cells	Not met
COc1cc(Nc2ccnc3ccc(C(F)(F)F)cc23)cc(OC)c1OC [GW577382X]	HeLa cells	Met
O=c1cc(N2CCOCC2)nc2n(Cc3cccc(Cl)c3)ccn12 [GSK2296823A]	HeLa cells	Not met
O=S(=O)(CCOCc1ccc(-c2ccc3ncnc(Nc4ccc(OCc5cccc(F)c5)c(Cl)c4)c3c2)o1)c1ccccc1 [GW615311X]	HeLa cells	Not met
COc1cccc(NC(=O)NCCNc2ccnc(Nc3ccc(F)cc3)n2)c1 [GSK1379879A]	HeLa cells	Not met
Fc1cc(Cl)ccc1Nc1ccnc2cc(-c3ccc(CN4CCCCC4)o3)ccc12 [GW560116X]	HeLa cells	Met

---

Tested on: HeLa cells
Procedure text: Compound screen by flow cytometry: HeLa cell count as surrogate readout of cell viability (z-scoreHeLa)
Type: cell-based, human
Test context: PKIS compound screen, mean of 3 replicates
Experimental: The cells were resuspended in cell culture medium without antibiotics, seeded with 10,000 cells/well into Costar flat-bottom 96-well plates (Corning, Amsterdam, the Netherlands), and were incubated overnight at 37°C/5% CO2. […] The calculated mean MOI throughout all experiments was 6.8 ± 4.6 (mean ± SD). […] HeLa cells were harvested by trypsinization and fixed with 1% paraformaldehyde. Samples were measured on a FACSLyric with HTS extension (BD Biosciences). […]
Please note: y applies when z-scoreHeLa mean is 0.6 or greater, and n applies otherwise.

Compound	Assigned class
Cc1ccc(NC(=O)c2ccnc(N3CCN(C)CC3)c2)cc1-c1ccc(C(=O)NCC2CC2)cc1 [GW775604X]	n
COc1ccc(S(=O)(=O)NC2CCN(c3cc(C)nc(Nc4cccc(C#N)c4)n3)CC2)cc1 [GSK1653539A]	n
Cn1cc(-c2ccc3c(c2)CCN3C(=O)Cc2ccccc2Cl)c2c(N)ncnc21 [GSK2608885A]	n
COc1ccc(CNC(=O)NC2CCN(c3ccnc(Nc4ccc(OC)cc4)n3)C2)cc1 (centres unmarked) [GSK1379727A]	y
COC(=O)c1cccc(NC(=O)NC2CCN(c3ccnc(NCc4ccc(F)cc4)n3)CC2)c1 [GSK1379860A]	n
c1ccc(COc2ccc(Nc3ncnc4ccc(-c5ccco5)cc34)cc2)cc1 [GW284372X]	n
Cn1cc(C=C2C(=O)Nc3cccnc32)c2ccccc21 [GW441756X]	y
c1ccc(Cn2ncc3cc(Nc4ncnc5ccccc45)ccc32)cc1 [GW273749A]	y
